test system: croton oil-induced ear dermatitis (edema); assay: Croton oil-induced mouse ear dermatitis: edematous response; conditions: topical dose 0.10 μmol/cm^2, 6 h
Marks after values point to notes of the source that are not given here.
Property name: edema (mg) mean ± SE

[[record]]
molecule = "C/C=C/c1ccc2c(c1)C(CO)[C@@H](c1ccc(O)cc1)O2 (stereo in doubt)"
property_name = "edema (mg) mean ± SE"
obs_value = "5.7 ± 0.4 ^a mg"

[[record]]
molecule = "C/C=C/c1ccc2oc(-c3ccc(O)cc3)c(C)c2c1"
property_name = "edema (mg) mean ± SE"
obs_value = "6.0 ± 0.4 mg"

[[record]]
molecule = "C[C@@H]1[C@H](C)[C@@H](c2ccc(O)cc2)O[C@@H]1c1ccc(O)cc1 [compound 2, (−)-larreatricin]"
property_name = "edema (mg) mean ± SE"
obs_value = "5.6 ± 0.3 ^a mg"

[[record]]
molecule = "C[C@]12CCC(=O)C=C1CC[C@@H]1[C@@H]2[C@@H](O)C[C@@]2(C)[C@H]1CC[C@]2(O)C(=O)CO [hydrocortisone, reference compound]"
property_name = "edema (mg) mean ± SE"
obs_value = "1.6 ± 0.2 ^a mg"

[[record]]
molecule = "C[C@@H]1[C@H](C)[C@@H](c2ccc(O)cc2)O[C@H]1c1ccc(O)cc1"
property_name = "edema (mg) mean ± SE"
obs_value = "5.9 ± 0.3 ^a mg"

[[record]]
molecule = "C/C=C/c1ccc2oc(-c3ccc(OC)cc3O)cc2c1"
property_name = "edema (mg) mean ± SE"
obs_value = "6.2 ± 0.3 mg"

[[record]]
molecule = "C/C=C/c1ccc2oc(-c3ccc(O)cc3O)cc2c1"
property_name = "edema (mg) mean ± SE"
obs_value = "5.9 ± 0.3 ^a mg"

